assay: E. coli DRC41 culture turbidity changes, primary screen, E. coli filamentation inducer project, strain DRC41, OD650, 48 h (AID 1152);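 further: E. coli MC1000 strain DRC41 lacking acrAB efflux pump and sulA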; conditions: E. coli DRC41 (acrAB sulA), higher = more signal, called active from +8 up or from −8 down

compound | z-score
COC1OC[C@]2(C)[C@H]3C4=C(CN2C(=O)OC(C)(C)C)[C@H](C)C(CO)C(CO)C4CC[C@@H]13 (stereo not given in full) | -0.787
O=C(N1CCCCC1)[C@@]1(CCS(=O)(=O)c2ccccc2)COC(c2ccc(OCCCO)cc2)=N1 | 0.641
COCCOC(=O)N1C(=O)[C@@]2(c3cc(C#CCCO)ccc31)[C@H](c1ccccc1OCCO)N1[C@H](c3ccccc3)[C@H](c3ccccc3)OC(=O)[C@H]1[C@@H]2C(=O)Nc1nc2ccccc2s1 | -0.395
COC(=O)[C@@]1(Cc2ccccc2)[C@@H]2C(=CC(=O)[C@H]2CC(=O)C(=O)N(C)C)CN1C(=O)c1ccccc1 | 0.174
NC(=O)NCC#Cc1ccc2c(c1)[C@]1(C(=O)N2)[C@H](C(=O)O)[C@H]2C(=O)O[C@H](c3ccccc3)[C@H](c3ccccc3)N2[C@@H]1c1ccc(OCCO)cc1 | 0.215
CCOC(=O)C[C@H]1[C@H](OC(=O)Cc2ccc3c(c2)OCO3)[C@@H](NC(=O)CC(C)C)c2cc(OCCCO)ccc2N1C(=O)Cc1ccc(OC)cc1 | 2.26
O=C(CS)NCCCCCCNC(=O)[C@H]1C[C@H]2C(=O)N[C@@H](Cc3ccccc3)C(=O)N2[C@H]1c1ccc(O)cc1 | -0.558
CCCCC=C[C@@H](NC(=O)c1ccc(-c2ccccc2)cc1)c1ccccc1 | -1.63
C=CCNC(=O)[C@@H]1[C@H]2C(=O)O[C@H](c3ccccc3)[C@H](c3ccccc3)N2[C@H](c2ccc(O)cc2)[C@@]12C(=O)N(C(=O)OCCOC)c1ccc(C#CC3(O)CCCCCC3)cc12 | 2.23
O=C1N(Cc2ccccc2)Cc2ccccc2[C@@H]2OC(c3ccc(OCCCO)cc3)=N[C@]12CCS(=O)(=O)c1ccccc1 | -0.715
O=C1O[C@H](c2ccccc2)[C@H](c2ccccc2)N2[C@H]1[C@@H](C(=O)N1CCN(c3ncccn3)CC1)[C@]1(C(=O)Nc3ccc(C#CC4(O)CCCCCC4)cc31)[C@H]2c1ccc(OCCO)cc1 | -0.735
CCOC(=O)C[C@H]1[C@H](OC(=O)c2ccc(C(=O)c3ccccc3)cc2)[C@@H](NC(=O)Cc2ccc(OC)cc2)c2cc(OCCCO)ccc2N1C(=O)c1ccccc1 | -0.915
O=C1c2ccccc2[C@](Cc2ccccc2I)(C(=O)NCC(F)(F)F)[C@H](c2ccc(CO)cc2)N1C1CCCCC1 | 1.25
COCCCNC(=O)[C@@]1(Sc2ccc(C)cc2)CC(=O)N(C2CCCCC2)[C@@H]1c1ccc(CO)cc1 | -0.204
COC(=O)[C@@]1(Cc2ccccc2)[C@H]2c3cc(C(=O)N(C)C)n(CCc4ccc(O)c(OC)c4)c3C[C@H]2CN1C(=O)c1ccccc1 | -0.873
CCC[C@@H]1C[C@@]1(CCC)[C@@H](NC(=O)OCc1ccccc1)c1ccc(-c2ccccc2)cc1 | -1.07
[N-]=[N+]=NCc1ccccc1[C@H]1OC(c2ccc(OCCCO)cc2)=N[C@@]1(CCS(=O)(=O)c1ccccc1)C(=O)NCC(O)CO (stereo not given in full) | -0.0559
COCCOC(=O)N1C(=O)[C@@]2(c3cc(C#CC4=CCCCC4)ccc31)[C@H](c1ccc(O)cc1)N1[C@H](c3ccccc3)[C@H](c3ccccc3)OC(=O)[C@H]1[C@@H]2C(=O)N1CCN(c2ncccn2)CC1 | -0.202
O=C1OCCC/C=C\[C@H]2OC34C=CCN(CCN5CCOCC5)C(=O)[C@H]3N(CCCCCCO)C(=O)[C@@H]4C12 (stereo not given in full) | 1.76
[N-]=[N+]=Nc1ccccc1[C@H]1OC(c2ccc(OCCCO)cc2)=N[C@@]1(CCS(=O)(=O)c1ccccc1)C(=O)NCCN1CCOCC1 | -0.0631
